Biological target: Replicase polyprotein 1ab (Severe acute respiratory syndrome coronavirus 2)
Assay: Inhibition of SARS-CoV-2 3CL-Pro proteolytic cleavage of a dual-labeled substrate by FRET at 1mM DTT.
Assay type: functional
Design: assay stage
Field 'call' accepts active, inactive

Solved cases below.
{"columns": ["compound", "system_name", "assigned_class"],
 "data": [
  ["Cc1cc(-c2ccc(/N=N/c3ccc4c(S(=O)(=O)O)cc(S(=O)(=O)O)c(N)c4c3O)c(C)c2)ccc1/N=N/c1ccc2c(S(=O)(=O)O)cc(S(=O)(=O)O)c(N)c2c1O", "Replicase polyprotein 1ab (Severe acute respiratory syndrome coronavirus 2)", "active"],
  ["CCN(CC)S(=O)(=O)c1cccc(-n2sc3ccccc3c2=O)c1", "Replicase polyprotein 1ab (Severe acute respiratory syndrome coronavirus 2)", "active"],
  ["Oc1cc2c(cc1O)C(c1ccccc1)CNCC2 (configuration not stated)", "Replicase polyprotein 1ab (Severe acute respiratory syndrome coronavirus 2)", "inactive"],
  ["O=C(O)c1c(Cl)c(Cl)c(Cl)c(Cl)c1-c1c2cc(I)c(=O)c(I)c-2oc2c(I)c(O)c(I)cc12", "Replicase polyprotein 1ab (Severe acute respiratory syndrome coronavirus 2)", "inactive"],
  ["COc1ccc2[nH]c([S+]([O-])Cc3ncc(C)c(OC)c3C)nc2c1 (configuration not stated)", "Replicase polyprotein 1ab (Severe acute respiratory syndrome coronavirus 2)", "inactive"],
  ["CN(C)S(=O)(=O)c1cccc(-n2sc3ccccc3c2=O)c1", "Replicase polyprotein 1ab (Severe acute respiratory syndrome coronavirus 2)", "active"]
]}

Kindly review the next compound as well.
# input Hi, sorry to bother you, what did the test record for Sc1nnc(-c2ccccc2Cl)o1 ?
# output inactive
